Serine/threonine-protein kinase pim-1 (Homo sapiens, UniProt P11309) pKi, compiled from various sources.
Would you please state pKi, meaning minus log10 of the concentration in mol/L, as a bare number?

>  <compound>
Cn1ncc(NC(=O)c2nc(-c3ncccc3F)sc2N)c1N1CC[C@H](N)[C@@H](F)CC1

>  <testedSystem>
Serine/threonine-protein kinase pim-1 (Homo sapiens, UniProt P11309)

>  <pKi>
10.04

$$$$
>  <compound>
CN1CCN(c2n[nH]c3cnc(-c4cccnc4)cc23)C1=O

>  <testedSystem>
Serine/threonine-protein kinase pim-1 (Homo sapiens, UniProt P11309)

>  <pKi>
7.73

$$$$
>  <compound>
Cc1nn(C)cc1-c1nc(C(=O)Nc2cnn(C)c2N2CC[C@@H](N)CC(F)(F)C2)c(N)s1

>  <testedSystem>
Serine/threonine-protein kinase pim-1 (Homo sapiens, UniProt P11309)

>  <pKi>
10.52

$$$$
>  <compound>
CCc1ccc(-c2n[nH]c3cnc(-c4cnn(C)c4)cc23)nc1N1CCC[C@H](N)C1

>  <testedSystem>
Serine/threonine-protein kinase pim-1 (Homo sapiens, UniProt P11309)

>  <pKi>
10.66

$$$$
>  <compound>
Cn1ncc(NC(=O)c2nc(-c3ccccc3F)ccc2N)c1N1CCC[C@H](N)CC1

>  <testedSystem>
Serine/threonine-protein kinase pim-1 (Homo sapiens, UniProt P11309)

>  <pKi>
9.43

$$$$

stdin: Fetch value of pKi on Serine/threonine-protein kinase pim-1 (Homo sapiens, UniProt P11309) for c1cc(-c2n[nH]c3cnc(C4CCCOC4)cc23)nc(N2CCNCC2)c1 (stereo not drawn) .
stdout: 8.40

stdin: Report pKi from Serine/threonine-protein kinase pim-1 (Homo sapiens, UniProt P11309) testing of "N[C@H]1CCC[C@@H](Oc2cccc(-c3n[nH]c4cnc(-c5cccnc5)cc34)n2)C1"
stdout: 9.18

stdin: Look up Serine/threonine-protein kinase pim-1 (Homo sapiens, UniProt P11309) data: pKi of Nc1sc(-c2c(F)cccc2F)nc1C(=O)Nc1cnn(CC(F)(F)F)c1N1CCCCC(N)C1 (stereo not drawn) , then report it.
stdout: 9.68

stdin: State measured pKi of the compound "CCn1cc(-c2cc3c(-c4cccc(N5CCCC[C@H](O)C5)n4)n[nH]c3cn2)cn1" with Serine/threonine-protein kinase pim-1 (Homo sapiens, UniProt P11309).
stdout: 9.99
